Molecular target: T1, His-tagged CEACAM1 (human, UniProt P13688 35-428)
T1 construct: 45 kDa SPR analyte; also called CEACAM1-HIS; CEACAM1 analyte
T1 sequence: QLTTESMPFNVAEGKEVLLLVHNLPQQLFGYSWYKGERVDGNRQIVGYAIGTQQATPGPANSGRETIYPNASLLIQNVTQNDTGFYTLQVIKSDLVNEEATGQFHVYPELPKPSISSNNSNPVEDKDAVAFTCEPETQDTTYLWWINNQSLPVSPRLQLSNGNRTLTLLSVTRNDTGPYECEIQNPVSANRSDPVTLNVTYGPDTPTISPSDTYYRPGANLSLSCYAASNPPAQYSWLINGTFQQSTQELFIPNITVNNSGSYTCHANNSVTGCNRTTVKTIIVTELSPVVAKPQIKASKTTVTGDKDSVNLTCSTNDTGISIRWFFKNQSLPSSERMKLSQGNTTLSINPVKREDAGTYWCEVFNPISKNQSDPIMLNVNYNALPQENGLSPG
Test: SPR single-cycle, supernatant IgG captured
VALUE_TYPE: pKd
Value format note: pKd is -log10 of concentration (mol/L); just state the number.

Worked set:
| BINDER | EXPERIMENTAL_RESULT |
| --- | --- |
| VH1/CP08G01 (antibody, IgG4, V domains shown, IgG4 (S241P), kappa) VH: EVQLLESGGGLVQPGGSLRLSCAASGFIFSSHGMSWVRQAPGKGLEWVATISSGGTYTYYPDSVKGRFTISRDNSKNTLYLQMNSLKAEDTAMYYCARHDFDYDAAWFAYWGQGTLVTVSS VL: EIVLTQSPATLSLSPGERATLSCRANSAVSYMYWYQQKPGQAPRPWIYLTSNRATGVPARFSGSGSGTDYTLTISSLEPEDFAVYYCQQNTNLPFTFGQGTKLEIK | 6.40 |
| CP08C01/Vκ8 S29A (antibody, IgG4, V domains shown, IgG4 (S241P), kappa) VH: EVQLLESGGGLVQPGGSLRLSCAASGYSFSNHGMSWVRQAPGKGLEWVATISSGGTYTYYPDSVKGRFTISRDNSKNTLYLQMNSLKAEDTAMYYCARHDFDYDAAWFAYWGQGTLVTVSS VL: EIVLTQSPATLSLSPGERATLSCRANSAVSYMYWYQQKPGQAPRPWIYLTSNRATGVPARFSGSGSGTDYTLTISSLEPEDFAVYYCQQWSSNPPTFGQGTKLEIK | 5.92 |

Proceeding to the next binder to report its pKd.
Task item: State the recorded pKd for this entry: CP08B01/Vκ8 S29A (antibody, IgG4, V domains shown, IgG4 (S241P), kappa) VH: EVQLLESGGGLVQPGGSLRLSCAASGFTFSAHAMSWVRQAPGKGLEWVATISSGGTYTYYPDSVKGRFTISRDNSKNTLYLQMNSLKAEDTAMYYCARHDFDYDAAWFAYWGQGTLVTVSS VL: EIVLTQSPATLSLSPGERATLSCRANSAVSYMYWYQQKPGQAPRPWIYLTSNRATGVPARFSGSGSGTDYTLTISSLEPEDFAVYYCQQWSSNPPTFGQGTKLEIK
Reply: 6.21
